protocol-text: Cytotoxicity against rat L6 cells after 72 hrs by microplate alamar blue assay
Assay type: cell-based
# class assignment by measured CC50 at 72 h: low = under 20 µM, mid = from 20 µM up to 80 µM, high = 80 µM and over

structure-string	cat
CCC(=O)N(CCCCCCN/C(=N/C(=O)OC(C)(C)C)NC(=O)OC(C)(C)C)C1CCN(CCc2ccccc2)CC1	mid
O=[N+]([O-])c1cccc(NC2CCN(CCc3ccccc3)CC2)c1	high
CC(C)(C)OC(=O)NCCCCCCCCNC1CCN(CCc2ccccc2)CC1	low
CC(C)(C)OC(=O)NCCNC1CCN(CCc2ccccc2)CC1	high
N=C(N)NCCCCCCCCCNC(=N)N.O=S(=O)(O)O	high
CC(C)(C)OC(=O)NCCCNC1CCN(CCc2ccccc2)CC1	high
CC(C)(C)OC(=O)NCCCCCCNC1CCN(CCc2ccccc2)CC1	mid
CC(C)(C)OC(=O)NCCCCCCCCCNC1CCN(CCc2ccccc2)CC1	low
N=C(N)NCCCCCCCCNC(=N)N.O=S(=O)(O)O	high
CC(C)(C)OC(=O)NCCCCNC1CCN(CCc2ccccc2)CC1	high
CC(C)(C)OC(=O)NCCCCCCCCCCCCNC1CCN(CCc2ccccc2)CC1	low
CCC(=O)N(CCN/C(=N/C(=O)OC(C)(C)C)NC(=O)OC(C)(C)C)C1CCN(CCc2ccccc2)CC1	mid
N=C(N)NCCCCCCNC(=N)N.O=S(=O)(O)O	high
CC(C)(C)OC(=O)NCCCCCCCNC1CCN(CCc2ccccc2)CC1	mid
CCC(=O)N(CCCCCCCCN/C(=N/C(=O)OC(C)(C)C)NC(=O)OC(C)(C)C)C1CCN(CCc2ccccc2)CC1	mid

----------
Entries and their measured pIC50 follow.
Tested on: Plasmodium falciparum
protocol-text: Antiplasmodial activity against erythrocytic stage of chloroquine - and pyrimethamine-resistant Plasmodium falciparum K1 assessed as [3H]hypoxanthine incorporation after 48 hrs
Assay type: functional, organism-based
pIC50: −log10 of the molar value.

structure-string	pIC50
CC(C)(C)OC(=O)NCCCCCNC1CCN(CCc2ccccc2)CC1	5.82
CCC(=O)N(CCN/C(=N/C(=O)OC(C)(C)C)NC(=O)OC(C)(C)C)C1CCN(CCc2ccccc2)CC1	5.73
CC(C)(C)OC(=O)NCCCCCCNC1CCN(CCc2ccccc2)CC1	6.05
CC(C)(C)OC(=O)NCCCCCCCCCCCCNC1CCN(CCc2ccccc2)CC1	6.49
CCC(=O)N(CCCCCCCCN/C(=N/C(=O)OC(C)(C)C)NC(=O)OC(C)(C)C)C1CCN(CCc2ccccc2)CC1	6.22
CCC(=O)N(CCCCCCCCCCCCNC(=O)OC(C)(C)C)C1CCN(CCc2ccccc2)CC1	5.88
CC(C)(C)OC(=O)NCCCCCCCNC1CCN(CCc2ccccc2)CC1	6.11
CC(C)(C)OC(=O)NCCCCCCCCCNC1CCN(CCc2ccccc2)CC1	6.44
CCC(=O)N(CCCCCCCCCNC(=O)OC(C)(C)C)C1CCN(CCc2ccccc2)CC1	5.84
CC(C)(C)OC(=O)NCc1cccc(CNC2CCN(CCc3ccccc3)CC2)c1	5.78
N=C(N)NCCCCCCNC(=N)N.O=S(=O)(O)O	6.35
CCC(=O)N(CCCCCCCCCCCCN/C(=N/C(=O)OC(C)(C)C)NC(=O)OC(C)(C)C)C1CCN(CCc2ccccc2)CC1	6.39
CCCCCCCCCCCCCNC(=N)N.O=S(=O)(O)O	5.10
N=C(N)NCCCCCCCCNC(=N)N.O=S(=O)(O)O	6.97
CC(C)(C)OC(=O)NCCNC1CCN(CCc2ccccc2)CC1	5.69
CC(C)(C)OC(=O)NCCCNC1CCN(CCc2ccccc2)CC1	5.68
CCC(=O)N(CCCN/C(=N/C(=O)OC(C)(C)C)NC(=O)OC(C)(C)C)C1CCN(CCc2ccccc2)CC1	5.87
CC(C)(C)OC(=O)NCCCCNC1CCN(CCc2ccccc2)CC1	5.89
N=C(N)NCCCCCCCCCNC(=N)N.O=S(=O)(O)O	7.08
O=[N+]([O-])c1cccc(NC2CCN(CCc3ccccc3)CC2)c1	4.98
CC(C)(C)OC(=O)NCCCCCCCCNC1CCN(CCc2ccccc2)CC1	6.21
CCC(=O)N(CCCCCCN/C(=N/C(=O)OC(C)(C)C)NC(=O)OC(C)(C)C)C1CCN(CCc2ccccc2)CC1	6.07
